Reported pIC50 for target or system human VEGF receptor (VEGFR-2) (Homo sapiens, UniProt P35968), by entry.
pIC50: −log10 of the molar value.
Experimental endpoint: pIC50

Some molecules with known pIC50 results, for comparison:
Cc1ccc(F)c(NC(=O)Nc2ccc(Oc3ccnc(-c4cc(C(=O)NCCc5nn[nH]n5)c[nH]4)c3)cc2)c1	8.30
Cc1cccc(NC(=O)Nc2ccc(Oc3ccnc(-c4cc(C(=O)OCC(CO)(CO)CO)c[nH]4)c3)cc2)c1	8.15
COC(=O)CNCCCNC(=O)c1c[nH]c(-c2cc(Oc3cc(C(=O)Nc4cc(C)ccc4F)ccc3F)ccn2)c1	7.85
Cc1ccoc1C(=O)Nc1cccc(Oc2ccnc(-c3cc(C(=O)N[C@@H](CCC(=O)OC(C)(C)C)C(=O)O)c[nH]3)c2)c1	7.51
CCOC(=O)CN1CCN(CCNC(=O)c2c[nH]c(-c3cc(Oc4ccc(NC(=O)Nc5cc(C)ccc5F)cc4)ccn3)c2)CC1	8.00
CCOC(=O)N1CCN(CCNC(=O)c2c[nH]c(-c3cc(Oc4ccc(NC(=O)Nc5cc(C)ccc5F)c(F)c4)ccn3)c2)CC1	8.00

(1) Cc1ccc(F)c(NC(=O)Nc2ccc(Oc3ccnc(-c4cc(C(=O)NCCCNC(=O)OC(C)(C)C)c[nH]4)c3)cc2F)c1
(2) COC(=O)CNCCNC(=O)c1c[nH]c(-c2cc(Oc3ccc(NC(=O)Nc4cc(C)ccc4F)cc3)ccn2)c1
**Q:** Which record shows the lower pIC50: the first, 1 , or the second, 2 ? The response must carry the label of the picked entry.
**A:** 1
(1: 7.89, 2: 8.10)

(P) Cc1ccc(F)c(NC(=O)Nc2ccc(Oc3ccnc(-c4cc(C(=O)NCCCN5CCOC(CO)C5)c[nH]4)c3)cc2)c1 (stereo not drawn)
(Q) CCNC(=O)[C@H](CCC(=O)O)NC(=O)c1c[nH]c(-c2cc(Oc3cc(C(=O)Nc4cc(C)ccc4F)ccc3F)ccn2)c1
**Q:** Param metric = pIC50; output whichever of P , Q has the minimum value. Your answer should be the label of the entry you select.
**A:** Q

(P) Cc1ccc(F)c(NC(=O)Nc2ccc(Oc3ccnc(-c4cc(C(=O)NN)c[nH]4)c3)cc2)c1
(Q) Cc1ccc(F)c(NC(=O)c2ccc(F)c(Oc3ccnc(-c4cc(C(=O)NCCNC(=O)OC(C)(C)C)c[nH]4)c3)c2)c1
**Q:** Given the two records P and Q , choose the one whose pIC50 value is lower. Your answer should be the label of the entry you select.
**A:** Q

====

VEGFR1 (Homo sapiens, UniProt P17948): recorded IC50 for assorted compounds
Sequence (P17948 27-1338, species assumed): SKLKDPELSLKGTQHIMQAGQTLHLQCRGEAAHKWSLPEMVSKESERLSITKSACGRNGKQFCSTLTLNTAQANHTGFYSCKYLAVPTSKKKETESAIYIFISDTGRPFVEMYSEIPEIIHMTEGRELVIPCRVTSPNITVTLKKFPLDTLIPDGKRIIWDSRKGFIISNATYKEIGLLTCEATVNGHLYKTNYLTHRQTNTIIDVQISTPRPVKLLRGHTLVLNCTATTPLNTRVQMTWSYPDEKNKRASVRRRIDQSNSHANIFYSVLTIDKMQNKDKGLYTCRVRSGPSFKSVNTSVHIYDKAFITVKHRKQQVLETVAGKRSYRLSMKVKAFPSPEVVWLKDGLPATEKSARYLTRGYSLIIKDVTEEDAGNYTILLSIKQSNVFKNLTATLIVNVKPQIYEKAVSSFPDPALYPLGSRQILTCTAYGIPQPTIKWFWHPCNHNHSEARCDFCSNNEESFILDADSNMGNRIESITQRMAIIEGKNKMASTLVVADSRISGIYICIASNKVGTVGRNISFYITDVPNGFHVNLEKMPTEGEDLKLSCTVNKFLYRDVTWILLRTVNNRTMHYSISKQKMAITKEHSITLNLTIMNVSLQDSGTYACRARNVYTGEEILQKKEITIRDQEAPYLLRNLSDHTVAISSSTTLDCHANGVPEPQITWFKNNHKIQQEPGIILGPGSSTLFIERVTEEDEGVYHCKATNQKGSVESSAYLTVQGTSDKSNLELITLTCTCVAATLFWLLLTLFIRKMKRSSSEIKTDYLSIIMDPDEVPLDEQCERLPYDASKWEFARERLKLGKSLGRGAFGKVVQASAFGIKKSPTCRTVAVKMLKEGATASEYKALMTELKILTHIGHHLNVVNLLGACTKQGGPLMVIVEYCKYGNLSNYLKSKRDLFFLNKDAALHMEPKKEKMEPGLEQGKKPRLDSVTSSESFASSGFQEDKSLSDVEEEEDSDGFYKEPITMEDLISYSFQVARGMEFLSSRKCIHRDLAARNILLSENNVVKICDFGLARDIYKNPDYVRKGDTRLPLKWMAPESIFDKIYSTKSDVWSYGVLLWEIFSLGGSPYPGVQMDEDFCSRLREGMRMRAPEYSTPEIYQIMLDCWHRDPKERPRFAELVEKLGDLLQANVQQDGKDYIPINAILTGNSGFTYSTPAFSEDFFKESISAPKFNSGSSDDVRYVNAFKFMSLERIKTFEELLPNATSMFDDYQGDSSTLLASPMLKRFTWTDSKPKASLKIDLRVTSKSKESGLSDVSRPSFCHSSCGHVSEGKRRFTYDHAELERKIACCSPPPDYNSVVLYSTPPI
Experimental endpoint: IC50 (nM)

Cc1ccc(F)c(NC(=O)Nc2ccc(Oc3ccnc(-c4cc(C(=O)NCCCN(CC(=O)O)CC(=O)O)c[nH]4)c3)cc2)c1 [Example 214]	8

(P) Cc1ccc(F)c(NC(=O)c2ccc(F)c(Oc3ccnc(-c4cc(C(=O)N[C@@H](CCC(=O)OC(C)(C)C)C(=O)O)c[nH]4)c3)c2)c1 [Example 257]
(Q) COC(=O)CNCCCNC(=O)c1c[nH]c(-c2cc(Oc3ccc(NC(=O)Nc4cc(C)ccc4F)cc3)ccn2)c1 [Example 154]
**Q:** // compare measured IC50, left P , right Q , return larger Returns: label corresponding to the selected item.
**A:** P
